Cited source: patent US20260092070A1

pIC50: −log10 of the molar value.
Let's go through some recorded pIC50 values for Human TYK-2 (Homo sapiens, UniProt P29597) together.

{"Compound": "CN(C)S(=O)(=O)c1ccc(NC(=O)CN2CCN(c3ncnc4[nH]ccc34)CC2)cc1Cl", "pIC50": "< 6.00"}
{"Compound": "O=C(CN1CCN(c2ncnc3[nH]ccc23)CC1)Nc1ccc(S(=O)(=O)N2CCC2)cc1", "pIC50": "< 6.00"}
{"Compound": "CC(C)NS(=O)(=O)c1ccc(NC(=O)C(C)N2CCN(c3ncnc4[nH]ccc34)CC2)cc1 (stereo not shown)", "pIC50": "< 6.00"}
{"Compound": "CNS(=O)(=O)c1ccc(N(C)C(=O)CN2CCN(c3ncnc4[nH]ccc34)CC2)cc1", "pIC50": "< 6.00"}
{"Compound": "CNS(=O)(=O)c1ccc(NC(=O)CN2CCN(c3ncnc4[nH]ccc34)CC2)cc1", "pIC50": "< 6.00"}
{"Compound": "CNS(=O)(=O)c1ccc(NC(=O)CN2CCN(c3ncnc4[nH]ccc34)CC2)cc1F", "pIC50": "6.00 to 6.30"}
{"Compound": "O=C(CN1CCN(c2ncnc3[nH]ccc23)CC1)Nc1ccc(S(=O)(=O)NC2CC2)cc1", "pIC50": "< 6.00"}
{"Compound": "CC(C)(C)NS(=O)(=O)c1ccc(NC(=O)CN2CCN(c3ncnc4[nH]ccc34)CC2)cc1", "pIC50": "< 6.00"}
{"Compound": "CC(C(=O)Nc1ccc(S(=O)(=O)N2CCCCC2)cc1)N1CCN(c2ncnc3[nH]ccc23)CC1 (stereo not shown)", "pIC50": "6.00 to 6.30"}
{"Compound": "COCCN(C)S(=O)(=O)c1ccc(NC(=O)CN2CCN(c3ncnc4[nH]ccc34)CC2)cc1", "pIC50": "< 6.00"}

* * *

Recorded JAK1/JAK2 selectivity, one value per entry.
Molecular target: JAK-1 (Homo sapiens)
Assay: JAK enzymatic assay (Eurofins KinaseProfiler/IC50Profiler, radiometric), JAK-1
Details: selectivity IC50 ratio for JAK1 versus JAK2, human enzymes

{"Molecule": "CCNS(=O)(=O)c1ccc(NC(=O)CN2CCN(c3ncnc4[nH]ccc34)CC2)cc1", "JAK1/JAK2 selectivity": 13}
{"Molecule": "CC(C(=O)Nc1cccc(S(=O)(=O)N(C)C)c1)N1CCN(c2nc[nH]c3nccc2-3)CC1 (centres unmarked)", "JAK1/JAK2 selectivity": 9}
{"Molecule": "COCCN(C)S(=O)(=O)c1ccc(NC(=O)CN2CCN(c3ncnc4[nH]ccc34)CC2)cc1", "JAK1/JAK2 selectivity": 15}
{"Molecule": "CN(C)S(=O)(=O)c1cccc(NC(=O)CN2CCN(c3nc[nH]c4nccc3-4)CC2)c1", "JAK1/JAK2 selectivity": 11}
{"Molecule": "CN(C)S(=O)(=O)c1ccc(NC(=O)CCN2CCN(c3nc[nH]c4nccc3-4)CC2)cc1", "JAK1/JAK2 selectivity": 11}
{"Molecule": "CC(C)NS(=O)(=O)c1ccc(NC(=O)C(C)N2CCN(c3ncnc4[nH]ccc34)CC2)cc1 (centres unmarked)", "JAK1/JAK2 selectivity": 7}
{"Molecule": "O=C(CN1CCN(c2nc[nH]c3nccc2-3)CC1)Nc1ccc(S(=O)(=O)N2CCCCC2)cc1", "JAK1/JAK2 selectivity": 4}
{"Molecule": "CCN(CC)S(=O)(=O)c1ccc(NC(=O)CN2CCN(c3ncnc4[nH]ccc34)CC2)cc1", "JAK1/JAK2 selectivity": 9}

* * *

Recorded pIC50, one value per entry.
Molecular target: JAK-1 (Homo sapiens, UniProt P23458)
Sequence (P23458 whole entry): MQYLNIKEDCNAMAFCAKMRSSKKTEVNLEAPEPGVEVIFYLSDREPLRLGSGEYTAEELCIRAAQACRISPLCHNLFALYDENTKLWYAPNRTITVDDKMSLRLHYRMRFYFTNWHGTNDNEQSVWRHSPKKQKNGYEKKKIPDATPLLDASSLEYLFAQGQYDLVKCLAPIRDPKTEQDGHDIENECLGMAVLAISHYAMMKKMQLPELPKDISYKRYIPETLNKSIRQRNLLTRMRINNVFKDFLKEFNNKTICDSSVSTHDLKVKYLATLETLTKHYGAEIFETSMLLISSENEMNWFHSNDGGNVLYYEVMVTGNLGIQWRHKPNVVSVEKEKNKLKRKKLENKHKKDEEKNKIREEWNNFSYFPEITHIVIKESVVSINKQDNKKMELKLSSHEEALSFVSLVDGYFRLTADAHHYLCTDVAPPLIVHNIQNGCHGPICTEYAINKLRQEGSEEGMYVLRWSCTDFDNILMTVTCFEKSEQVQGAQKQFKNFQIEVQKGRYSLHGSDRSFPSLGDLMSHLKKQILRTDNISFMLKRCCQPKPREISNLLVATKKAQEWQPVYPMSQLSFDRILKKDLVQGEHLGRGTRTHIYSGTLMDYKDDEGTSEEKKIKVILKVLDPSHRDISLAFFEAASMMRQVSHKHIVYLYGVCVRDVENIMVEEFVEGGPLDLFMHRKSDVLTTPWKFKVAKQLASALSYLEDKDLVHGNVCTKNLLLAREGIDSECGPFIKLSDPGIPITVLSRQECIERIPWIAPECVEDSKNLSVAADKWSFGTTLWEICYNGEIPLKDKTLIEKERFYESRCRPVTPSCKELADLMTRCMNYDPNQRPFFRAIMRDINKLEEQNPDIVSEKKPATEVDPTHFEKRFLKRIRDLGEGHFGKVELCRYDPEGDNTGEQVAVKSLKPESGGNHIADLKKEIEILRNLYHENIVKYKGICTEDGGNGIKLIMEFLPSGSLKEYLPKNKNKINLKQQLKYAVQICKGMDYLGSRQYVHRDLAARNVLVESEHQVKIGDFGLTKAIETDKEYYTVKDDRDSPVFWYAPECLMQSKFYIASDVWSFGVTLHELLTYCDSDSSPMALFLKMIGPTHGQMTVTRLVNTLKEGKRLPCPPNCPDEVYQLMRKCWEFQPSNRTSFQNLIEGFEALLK
Test: JAK enzymatic assay (Eurofins KinaseProfiler/IC50Profiler, radiometric), JAK-1
pIC50: −log10 of the molar value.
Readout type: pIC50

{"Compound": "COCCN(C)S(=O)(=O)c1ccc(NC(=O)CN2CCN(c3ncnc4[nH]ccc34)CC2)cc1 [Compound 10]", "Measurement": "6.30 to 6.60"}
{"Compound": "CCN(CC)S(=O)(=O)c1ccc(NC(=O)CN2CCN(c3ncnc4[nH]ccc34)CC2)cc1 [Compound 15]", "Measurement": "6.30 to 6.60"}
{"Compound": "CC(C)NS(=O)(=O)c1ccc(NC(=O)[C@@H](C)N2CCN(c3ncnc4[nH]ccc34)CC2)cc1 [Compound 18]", "Measurement": "6.30 to 6.60"}
{"Compound": "Cc1ccc(NC(=O)CN2CCN(c3nc[nH]c4nccc3-4)CC2)cc1S(=O)(=O)N(C)C [Compound 35]", "Measurement": "6.00 to 6.30"}
{"Compound": "CCNS(=O)(=O)c1ccc(NC(=O)CN2CCN(c3ncnc4[nH]ccc34)CC2)cc1 [Compound 13]", "Measurement": "> 6.60"}
{"Compound": "CC(C)N(C)C(=O)C1CCN(C(=O)CN2CCN(c3nc[nH]c4nccc3-4)CC2)CC1 [Compound 24]", "Measurement": "< 6.00"}
{"Compound": "CN(C)S(=O)(=O)c1ccccc1CNC(=O)CN1CCN(c2nc[nH]c3nccc2-3)CC1 [Compound 41]", "Measurement": "6.00 to 6.30"}
{"Compound": "O=C(CN1CCN(c2nc[nH]c3nccc2-3)CC1)Nc1cccc(S(=O)(=O)N2CCOCC2)c1 [Compound 30]", "Measurement": "< 6.00"}

* * *

Recorded pIC50, one value per entry.
Target: Human JAK-2 (Homo sapiens)
Sequence (O60674 whole entry): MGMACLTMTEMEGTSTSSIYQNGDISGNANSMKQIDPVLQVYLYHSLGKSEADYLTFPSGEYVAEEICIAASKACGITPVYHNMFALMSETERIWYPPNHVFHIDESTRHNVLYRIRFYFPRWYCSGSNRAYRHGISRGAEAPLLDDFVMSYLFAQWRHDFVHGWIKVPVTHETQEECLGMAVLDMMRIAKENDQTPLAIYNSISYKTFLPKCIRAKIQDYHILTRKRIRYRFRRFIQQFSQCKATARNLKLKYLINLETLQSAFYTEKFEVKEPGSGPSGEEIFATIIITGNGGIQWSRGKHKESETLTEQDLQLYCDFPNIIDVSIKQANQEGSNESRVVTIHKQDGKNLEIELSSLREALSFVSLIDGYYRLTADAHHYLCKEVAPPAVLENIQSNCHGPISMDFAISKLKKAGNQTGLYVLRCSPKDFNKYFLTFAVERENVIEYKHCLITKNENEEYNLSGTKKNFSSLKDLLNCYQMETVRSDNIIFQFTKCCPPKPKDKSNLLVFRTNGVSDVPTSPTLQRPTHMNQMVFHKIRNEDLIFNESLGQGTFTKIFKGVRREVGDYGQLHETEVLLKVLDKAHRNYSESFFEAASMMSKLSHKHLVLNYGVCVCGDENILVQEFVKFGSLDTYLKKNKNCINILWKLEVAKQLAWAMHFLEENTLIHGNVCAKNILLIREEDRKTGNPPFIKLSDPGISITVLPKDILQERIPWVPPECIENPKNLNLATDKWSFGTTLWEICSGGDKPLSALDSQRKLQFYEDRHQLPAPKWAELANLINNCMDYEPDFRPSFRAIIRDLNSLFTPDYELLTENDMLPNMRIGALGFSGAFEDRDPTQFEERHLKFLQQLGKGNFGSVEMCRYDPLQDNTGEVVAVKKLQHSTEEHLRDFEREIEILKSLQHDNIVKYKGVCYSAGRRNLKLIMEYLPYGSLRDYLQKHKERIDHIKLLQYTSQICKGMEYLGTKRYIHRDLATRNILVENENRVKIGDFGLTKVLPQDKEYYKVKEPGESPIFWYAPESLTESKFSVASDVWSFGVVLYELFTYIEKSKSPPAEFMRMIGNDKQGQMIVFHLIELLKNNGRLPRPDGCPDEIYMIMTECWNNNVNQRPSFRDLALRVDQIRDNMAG
pIC50: −log10 of the molar value.
Readout type: pIC50

{"Compound": "CC(C)N(C)C(=O)C1CCN(C(=O)CN2CCN(c3nc[nH]c4nccc3-4)CC2)CC1 [Compound 24]", "Target entity": "Human JAK-2 (Homo sapiens)", "Measurement": "< 6.00"}
{"Compound": "CN(C)S(=O)(=O)c1cccc(NC(=O)CN2CCN(c3nc[nH]c4nccc3-4)CC2)c1 [Compound 29]", "Target entity": "Human JAK-2 (Homo sapiens)", "Measurement": "< 6.00"}
{"Compound": "CCCNS(=O)(=O)c1ccc(NC(=O)CN2CCN(c3ncnc4[nH]ccc34)CC2)cc1 [Compound 12]", "Target entity": "Human JAK-2 (Homo sapiens)", "Measurement": "6.00 to 6.30"}
{"Compound": "O=C(CN1CCN(c2ncnc3[nH]ccc23)CC1)Nc1ccc(S(=O)(=O)NC2CC2)cc1 [Compound 7]", "Target entity": "Human JAK-2 (Homo sapiens)", "Measurement": "6.00 to 6.30"}
{"Compound": "O=C(CCN1CCN(c2nc[nH]c3nccc2-3)CC1)Nc1cccc(S(=O)(=O)N2CCCC2)c1 [Compound 39]", "Target entity": "Human JAK-2 (Homo sapiens)", "Measurement": "< 6.00"}
{"Compound": "CC(C)(C)NS(=O)(=O)c1ccc(NC(=O)CN2CCN(c3ncnc4[nH]ccc34)CC2)cc1 [Compound 2]", "Target entity": "Human JAK-2 (Homo sapiens)", "Measurement": "< 6.00"}
{"Compound": "CN(C)S(=O)(=O)c1ccccc1CNC(=O)CN1CCN(c2nc[nH]c3nccc2-3)CC1 [Compound 41]", "Target entity": "Human JAK-2 (Homo sapiens)", "Measurement": "< 6.00"}
{"Compound": "CCN(CC)S(=O)(=O)c1ccc(NC(=O)CN2CCN(c3ncnc4[nH]ccc34)CC2)cc1 [Compound 15]", "Target entity": "Human JAK-2 (Homo sapiens)", "Measurement": "< 6.00"}
{"Compound": "Cc1ccc(NC(=O)CN2CCN(c3nc[nH]c4nccc3-4)CC2)cc1S(=O)(=O)N(C)C [Compound 35]", "Target entity": "Human JAK-2 (Homo sapiens)", "Measurement": "< 6.00"}
{"Compound": "CC(C)NS(=O)(=O)c1ccc(NC(=O)C(C)N2CCN(c3ncnc4[nH]ccc34)CC2)cc1 (stereo not shown) [Compound 17]", "Target entity": "Human JAK-2 (Homo sapiens)", "Measurement": "< 6.00"}
{"Compound": "CC(C)N(C)S(=O)(=O)c1ccc(NC(=O)CN2CCN(c3nc[nH]c4nccc3-4)CC2)cc1 [Compound 37]", "Target entity": "Human JAK-2 (Homo sapiens)", "Measurement": "< 6.00"}
{"Compound": "O=C(Nc1ccccc1)C1CCN(C(=O)CN2CCN(c3ncnc4[nH]ccc34)CC2)CC1 [Compound 16]", "Target entity": "Human JAK-2 (Homo sapiens)", "Measurement": "< 6.00"}
{"Compound": "CNS(=O)(=O)c1ccc(NC(=O)CN2CCN(c3ncnc4[nH]ccc34)CC2)cc1F [Compound 9]", "Target entity": "Human JAK-2 (Homo sapiens)", "Measurement": "6.00 to 6.30"}
{"Compound": "CNS(=O)(=O)c1ccc(N(C)C(=O)CN2CCN(c3ncnc4[nH]ccc34)CC2)cc1 [Compound 14]", "Target entity": "Human JAK-2 (Homo sapiens)", "Measurement": "< 6.00"}
{"Compound": "O=C(CN1CCN(c2nc[nH]c3nccc2-3)CC1)N1CCN(C(=O)Nc2ccccc2)CC1 [Compound 28]", "Target entity": "Human JAK-2 (Homo sapiens)", "Measurement": "< 6.00"}
{"Compound": "CC(C(=O)Nc1cccc(S(=O)(=O)N(C)C)c1)N1CCN(c2nc[nH]c3nccc2-3)CC1 (stereo not shown) [Compound 36]", "Target entity": "Human JAK-2 (Homo sapiens)", "Measurement": "< 6.00"}
